src = patent US11691971B2

target: pseudo-kinase domain (JH2) of human Wild Type JAK2 (Homo sapiens (Human), UniProt O60674, F794H/W659A/W777A); assay: JAK2 LanthaScreen JH2-WT Binding Assay; details: JAK2 JH2-WT 0.145 nM, 50 nM tracer, 1 hour at 25° C.; read-out: JH2BIND_WT IC50
Sequence (O60674 536-812 W659A/W777A/F794H): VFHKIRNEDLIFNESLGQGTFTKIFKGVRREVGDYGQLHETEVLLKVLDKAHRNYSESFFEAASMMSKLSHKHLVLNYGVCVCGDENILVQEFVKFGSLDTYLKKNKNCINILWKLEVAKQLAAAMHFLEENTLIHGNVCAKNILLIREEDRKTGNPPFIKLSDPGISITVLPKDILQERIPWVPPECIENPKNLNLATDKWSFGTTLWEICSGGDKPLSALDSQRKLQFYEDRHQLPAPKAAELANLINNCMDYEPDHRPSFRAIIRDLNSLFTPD
Counter-ions that a name gives are not always drawn.
parameter_measured: IC50

For this compound ( CS(=O)(=O)c1c(Nc2cc(NC(=O)C3CC3)nc3cc[nH]c(=O)c23)cccc1-c1cnn(C2CCOCC2)c1 [Example 13, Trifluoroacetic Acid Salt] ), measured IC50 is 1 to 10 µM

For this compound ( COc1c(Nc2cc(NC(=O)C3CC3)nc3cc[nH]c(=O)c23)cccc1-c1cnn(C(C)C(N)=O)c1 (stereo not shown) [Example 8, Trifluoroacetic Acid Salt] ), measured IC50 is ≤ 0.1 µM

For this compound ( COc1c(Nc2cc(NC(=O)C3CC3)nc3cc[nH]c(=O)c23)cccc1N1CCN(S(=O)(=O)C2CC2)CC1 [Example 4, Trifluoroacetic Acid Salt] ), measured IC50 is 0.1 to 0.5 µM

For this compound ( COc1c(Nc2cc(NC(=O)C3CC3)nc3cc[nH]c(=O)c23)cccc1-c1cnn(C2CCOCC2)c1 [Example 5, Trifluoroacetic Acid Salt] ), measured IC50 is ≤ 0.1 µM

----------
Target: catalytic domain (JH1, amino acids 808-1132) of human JAK2 (Homo sapiens (Human))
Sequence (O60674 808-1132): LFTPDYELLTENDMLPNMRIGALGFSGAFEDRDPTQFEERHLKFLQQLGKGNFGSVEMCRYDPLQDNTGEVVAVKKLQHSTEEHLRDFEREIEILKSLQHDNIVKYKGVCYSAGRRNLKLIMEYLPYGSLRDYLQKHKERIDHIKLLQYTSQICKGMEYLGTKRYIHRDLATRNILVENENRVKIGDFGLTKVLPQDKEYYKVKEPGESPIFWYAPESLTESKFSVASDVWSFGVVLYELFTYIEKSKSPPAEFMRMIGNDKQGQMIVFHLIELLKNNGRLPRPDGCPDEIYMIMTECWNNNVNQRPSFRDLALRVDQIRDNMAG
Experiment: JAK2 HTRF Enzyme Activity Assay
Conditions: ATP 30 μM, 60 minutes at 25° C.; read-out: ENZ 30UMATP IC50
Experimental: Example D. JAK2 HTRF Enzyme Activity Assay JAK2 enzyme activity assays utilize catalytic domain (JH1, amino acids 808-1132) of human JAK2 expressed as N-terminal His-tagged protein in a baculovirus expression system (BPS Bioscience, Catalog #40450). The assays was conducted in black 384-well polystyrene plates in a final reaction volume of 20 μL. […] HTRF signals were read after 30 minutes incubation at room temperature on a PHERAstar FS plate reader (BMG LABTECH). […]
Counter-ions that a name gives are not always drawn.
parameter_measured: IC50

For this compound ( CCn1ccc2cccc(Nc3cc(NC(=O)C4CC4)nc4cc[nH]c(=O)c34)c21 [Example 9, Trifluoroacetic Acid Salt] ), measured IC50 is > 10 µM

For this compound ( COc1c(Nc2cc(NC(=O)C3CC3)nc3cc[nH]c(=O)c23)cccc1-c1cnn(C2CCCC2)c1 [Example 3, Trifluoroacetic Acid Salt] ), measured IC50 is > 10 µM

For this compound ( Cc1[nH]ncc1-c1c(Nc2cc(NC(=O)C3CC3)nc3cc[nH]c(=O)c23)cccc1C(F)(F)F [Example 19, Trifluoroacetic Acid Salt] ), measured IC50 is > 10 µM

For this compound ( O=C(Nc1cc(Nc2ccccc2OC(F)F)c2c(=O)[nH]ccc2n1)C1CC1 [Example 20, Trifluoroacetic Acid Salt] ), measured IC50 is 1 to 10 µM

For this compound ( CSc1c(Nc2cc(NC(=O)C3CC3)nc3cc[nH]c(=O)c23)cccc1-c1cnn(C2CCOCC2)c1 [Example 12, Trifluoroacetic Acid Salt] ), measured IC50 is > 10 µM

For this compound ( COc1c(Nc2cc(NC(=O)C3CC3)nc3cc[nH]c(=O)c23)cccc1C(=O)NCC1CCOCC1 [Example 11, Trifluoroacetic Acid Salt] ), measured IC50 is > 10 µM

For this compound ( COc1c(Nc2cc(NC(=O)C3CC3)nc3cc[nH]c(=O)c23)cccc1N1CCN(S(=O)(=O)C2CC2)CC1 [Example 4, Trifluoroacetic Acid Salt] ), measured IC50 is > 10 µM

For this compound ( COc1c(Nc2cc(NC(=O)C3CC3)nc3cc[nH]c(=O)c23)cccc1-c1cnn(C2CCOCC2)c1 [Example 5, Trifluoroacetic Acid Salt] ), measured IC50 is > 10 µM

For this compound ( COc1c(Nc2cc(NC(=O)C3CC3)nc3cc[nH]c(=O)c23)cccc1-c1cnn(C(C)C(N)=O)c1 (centres unmarked) [Example 8, Trifluoroacetic Acid Salt] ), measured IC50 is 0.1 to 0.5 µM

For this compound ( COc1ccccc1Nc1cc(NC(=O)C2CC2)nc2cc[nH]c(=O)c12 ), measured IC50 is 1 to 10 µM

For this compound ( O=C(Nc1cc(Nc2ccccc2OC2CC2)c2c(=O)[nH]ccc2n1)C1CC1 [Example 24, Trifluoroacetic Acid Salt] ), measured IC50 is 0.5 to 1 µM

For this compound ( O=C(Nc1cc(Nc2cccc(-c3cnn(C4CCOCC4)c3)c2)c2c(=O)[nH]ccc2n1)C1CC1 [Example 6, Trifluoroacetic Acid Salt] ), measured IC50 is 1 to 10 µM

For this compound ( COc1c(Nc2cc(NC(=O)C3CC3)nc3cc[nH]c(=O)c23)cccc1C(F)(F)F [Example 14, Trifluoroacetic Acid Salt] ), measured IC50 is > 10 µM

For this compound ( CS(=O)(=O)c1c(Nc2cc(NC(=O)C3CC3)nc3cc[nH]c(=O)c23)cccc1-c1cnn(C2CCOCC2)c1 [Example 13, Trifluoroacetic Acid Salt] ), measured IC50 is > 10 µM

For this compound ( O=C(Nc1cc(Nc2cccc(Cl)c2-c2cn[nH]c2)c2c(=O)[nH]ccc2n1)C1CC1 [Example 16, Trifluoroacetic Acid Salt] ), measured IC50 is 1 to 10 µM

For this compound ( COc1c(Nc2cc(NC(=O)C3CC3)nc3ccn(C)c(=O)c23)cccc1-c1cnc(C2CCOCC2)s1 [Example 10, Trifluoroacetic Acid Salt] ), measured IC50 is > 10 µM

For this compound ( Cc1[nH]ncc1-c1c(Cl)cccc1Nc1cc(NC(=O)C2CC2)nc2cc[nH]c(=O)c12 [Example 17, Trifluoroacetic Acid Salt] ), measured IC50 is 1 to 10 µM

For this compound ( COc1cc(-c2cnn(C3CCOCC3)c2)ccc1Nc1cc(NC(=O)C2CC2)nc2cc[nH]c(=O)c12 [Example 7, Trifluoroacetic Acid Salt] ), measured IC50 is 1 to 10 µM

For this compound ( O=C(Nc1cc(Nc2cccc(C(F)(F)F)c2-c2cn[nH]c2)c2c(=O)[nH]ccc2n1)C1CC1 [Example 18, Trifluoroacetic Acid Salt] ), measured IC50 is > 10 µM

For this compound ( COc1c(Nc2cc(NC(=O)C3CC3)nc3cc[nH]c(=O)c23)cccc1-c1cnc(C2CCOCC2)s1 [Example 2, Trifluoroacetic Acid Salt] ), measured IC50 is > 10 µM

For this compound ( CNc1ccccc1Nc1cc(NC(=O)C2CC2)nc2cc[nH]c(=O)c12 [Example 22, Trifluoroacetic Acid Salt] ), measured IC50 is > 10 µM

For this compound ( COc1c(Nc2cc(NC(=O)C3CC3)nc3cc[nH]c(=O)c23)cccc1-c1cn[nH]c1 ), measured IC50 is 1 to 10 µM

For this compound ( O=C(Nc1cc(Nc2ccccc2CO)c2c(=O)[nH]ccc2n1)C1CC1 [Example 23, Trifluoroacetic Acid Salt] ), measured IC50 is 1 to 10 µM
